Listed here: items and their measured inhibition at 1 µM.
target: human recombinant dopamine D2L receptor (Homo sapiens, UniProt P14416); assay: Dopamine D2L radioligand binding assay ([3H]Spiperone); settings: compound at 1 μM, 0.16 nM [3H]Spiperone, CHO cells, read-out: Percent Inhibition of ligand binding, Dopamine (1μM)
Sequence (P14416 whole entry): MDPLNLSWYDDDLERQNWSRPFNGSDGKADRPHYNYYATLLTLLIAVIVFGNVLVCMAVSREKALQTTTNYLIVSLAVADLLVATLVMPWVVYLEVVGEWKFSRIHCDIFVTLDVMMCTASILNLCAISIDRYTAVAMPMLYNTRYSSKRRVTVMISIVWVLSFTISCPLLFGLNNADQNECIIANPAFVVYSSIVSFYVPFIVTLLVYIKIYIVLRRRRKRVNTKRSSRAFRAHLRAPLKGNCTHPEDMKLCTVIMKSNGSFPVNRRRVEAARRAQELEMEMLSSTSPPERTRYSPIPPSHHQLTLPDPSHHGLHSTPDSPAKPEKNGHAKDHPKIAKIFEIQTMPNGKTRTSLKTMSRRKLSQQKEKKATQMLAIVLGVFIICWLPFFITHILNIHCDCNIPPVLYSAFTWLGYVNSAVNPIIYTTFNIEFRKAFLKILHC
Your answer is read as %, so omit the unit and give the number.

Answered examples (5):
CC[C@](O)(Cn1c2c(c3cc(C)ccc31)CN(C)CC2)c1ccncc1 :: 14
Cc1ccc(CCn2c3c(c4cc(Cl)ccc42)CN(C)C(C)C3)cn1 (stereo not drawn) :: 12
Cc1ccc2c(c1)c1c(n2CCc2ccc(C)nc2)CCN(CCCO)C1 :: 11
Cc1ccc2c(c1)c1c(n2CC(C)(C)c2ccncc2)CCN(C)C1 :: 54
Cc1ccc2c(c1)c1c(n2CC(C)c2ccncc2)CCN(C)C1 (stereo not drawn) :: 37

// sample Cc1ccc2c(c1)c1c(n2CC(C)c2ccc(C)nc2)CC(C)N(C)C1 (stereo not drawn) , its inhibition at 1 µM was 12

// sample Cc1ccc2c(c1)c1c(n2CC2(c3ccncc3)CC2)CCN(C)C1 , its inhibition at 1 µM was 47

// sample CCCC[C@](O)(Cn1c2c(c3cc(Cl)ccc31)CN(C)CC2)c1ccc(F)cc1 , its inhibition at 1 µM was 14

// sample Cc1ccc2c(c1)c1c(n2CC(=O)c2ccc(F)cc2)CCN(C)C1 , its inhibition at 1 µM was 57

// sample Cc1ccc2c(c1)c1c(n2CCc2ccc(C)nc2)CCN(CCC#N)C1 , its inhibition at 1 µM was -4

// sample Cc1ccc2c(c1)c1c(n2CCc2ccc(C)nc2)CCN(CC(F)(F)F)C1 , its inhibition at 1 µM was 12

// sample Cc1ccc2c(c1)c1c(n2CCc2ccc(C)nc2)CC(C)N(C)C1 (stereo not drawn) , its inhibition at 1 µM was 8

// sample CCCC[C@@](O)(Cn1c2c(c3cc(Cl)ccc31)CN(C)CC2)c1ccc(F)cc1 , its inhibition at 1 µM was 20

// sample CN1CCc2c(c3cc(Cl)ccc3n2CC(=O)c2ccc(F)cc2)C1 , its inhibition at 1 µM was 85

// sample Cc1ccc2c(c1)c1c(n2CCc2ccc(CCCN)nc2)CCN(C)C1 , its inhibition at 1 µM was 3

// sample CC[C@](O)(Cn1c2c(c3cc(C)ccc31)CN(C)CC2)c1ccc(F)cc1 , its inhibition at 1 µM was -14

// sample Cc1ccc2c(c1)c1c(n2CCc2ccc(C(F)(F)F)nc2)CC(C)N(C)C1 (stereo not drawn) , its inhibition at 1 µM was 0

// sample Cc1ccc2c(c1)c1c(n2CCc2ccc(C(F)(F)F)nc2)C(C)CN(C)C1 (stereo not drawn) , its inhibition at 1 µM was 14

---

target: human recombinant histamine H2 receptor (Homo sapiens, UniProt P25021); construct: expressed in transfected cells; host or cells: Chinese hamster ovary (CHO) K1 cells; assay: Histamine H2 radioligand binding assay ([125I]Aminopotentidine); details: compound at 1 μM; 0.1 nM [125I]Aminopotentidine; receptor expressed in CHO-K1 cells
Sequence (P25021 whole entry): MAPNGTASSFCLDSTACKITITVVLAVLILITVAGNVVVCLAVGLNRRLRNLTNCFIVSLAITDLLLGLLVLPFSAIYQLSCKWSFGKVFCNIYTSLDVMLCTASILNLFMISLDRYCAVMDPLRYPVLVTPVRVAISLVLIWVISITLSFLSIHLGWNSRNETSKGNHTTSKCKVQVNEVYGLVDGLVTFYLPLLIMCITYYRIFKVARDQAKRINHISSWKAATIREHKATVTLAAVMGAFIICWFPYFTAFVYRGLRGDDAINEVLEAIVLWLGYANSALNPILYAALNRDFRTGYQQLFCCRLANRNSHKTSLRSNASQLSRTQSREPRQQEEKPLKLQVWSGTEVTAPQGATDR
Decide by inhibition at 1 µM: equal to or exceeding 20% means yes (1), less means no (0).

Some solved entries appear below for comparison.
Cc1ccc2c(c1)c1c(n2CCc2ccc(C)nc2)CCN(CCC#N)C1 :: no (0)
Cc1ccc2c(c1)c1c(n2CC(=O)c2ccccc2)CCN(C)C1 :: no (0)
CN1CCc2c(c3cc(Cl)ccc3n2CC(=O)c2ccc(Cl)cc2)C1 :: yes (1)
Cc1ccc2c(c1)c1c(n2CCc2ccc(C(F)(F)F)nc2)CCNC1 :: no (0)
Cc1ccc2c(c1)c1c(n2CC(=O)c2ccc(F)cc2)CCN(C)C1 :: yes (1)

Next molecule, please.
Lookup: Decide: is the reported value of inhibition at 1 µM for Cc1ccc2c(c1)c1c(n2CCc2ccc(CCCN)nc2)CCN(C)C1 equal to or greater than 20%?
Found: no (0)
